Values compiled from paper PMC6792352.

System: GH3-TRE-Luc cell line
Measurement context: read-out: AC50 (uM) modified / 1000; Tox21_110001=Tox21_300561; viability, 1 nM T3 present, 24 h

{"columns": ["Compound structure", "CC50 (µM)"],
 "data": [
  ["CC(C)(c1cc(Br)c(O)c(Br)c1)c1cc(Br)c(O)c(Br)c1", 38.6]
]}

====

CC50 at 24 h: recorded values
Experiment: in vitro
Measurement context: rat, gh3-tre-luc cells, AC50 (uM) modified / 1000

{"columns": ["Compound", "CC50 at 24 h"],
 "data": [
  ["NS(=O)(=O)c1cc2c(cc1Cl)NC(C1CC3C=CC1C3)NS2(=O)=O (stereo not drawn) [Cyclothiazide]", "> 50 µM"],
  ["CCCCCCCC(=O)OCC(O)CO (stereo not drawn) [Glyceryl monooctanoate]", "> 90 µM"],
  ["CCc1cc(Cc2cc(CC)cc(C(C)(C)C)c2O)c(O)c(C(C)(C)C)c1", "7.35 µM"],
  ["CC1(C)S[C@@H]2[C@H](N3C(=O)[C@@H](c4ccccc4)NC3(C)C)C(=O)N2[C@H]1C(=O)O [Hetacillin potassium]", "> 50 µM"],
  ["CN1COCN(Cc2cnc(Cl)s2)/C1=N/[N+](=O)[O-] [Thiamethoxam]", "> 90 µM"],
  ["COC(=O)c1ccc(CBr)cc1 [Methyl 4-(bromomethyl)benzoate]", "> 90 µM"],
  ["COC(CC(C)CCCC(C)(C)O)OC (stereo not drawn) [Hydroxycitronellal dimethyl acetal]", "> 90 µM"],
  ["CCC(C)COC(=O)CC(C)C (stereo not drawn) [2-Methylbutyl isovalerate]", "> 90 µM"],
  ["CC=C(C)C#N [2-Methyl-2-butenenitrile]", "> 90 µM"]
]}
